Each entry below lists one item and its recorded CHI Log D value.
ASSAY EXPLANATION: CHI Log D procedure
Assay type: physicochemical
SETTINGS: pH 7.4

MOLECULE	CHI Log D
COCCOCCC(=O)NCCCC[C@@H]1NC(=O)[C@H](C)NC(=O)[C@H](CC(=O)O)NC(=O)[C@H](CC(=O)O)NC(=O)C2(CCCC=CCCCOC(=O)N3CC[C@@](C(=O)N[C@@H](Cc4ccsc4)C(=O)N[C@@H](Cc4csc5ccccc45)C(=O)N[C@@H](CCC(N)=O)C(N)=O)(C3)NC(=O)[C@H](CC(N)=O)NC(=O)[C@H](Cc3ccccc3)NC1=O)CCCC=CC[C@]1(CCCN1C(C)=O)C(=O)N[C@@H](CC(=O)O)C(=O)N[C@@H](CC(C)(C)C)C(=O)N2 (some centres unmarked) [I-892]	1.475
CC(=O)N1CCC[C@]12CC=CCCCC1(CCCC=CCCCOC(=O)N3CC[C@@](C(=O)N[C@@H](Cc4ccccc4C(F)(F)F)C(=O)N[C@@H](Cc4csc5ccccc45)C(=O)N[C@@H](CCC(N)=O)C(N)=O)(C3)NC(=O)[C@H](CC(N)=O)NC(=O)[C@H](Cc3ccccc3)NC(=O)[C@H](C)NC(=O)[C@H](C)NC(=O)[C@H](CN(CC(=O)O)CC(F)(F)F)NC(=O)[C@H](CC(=O)O)NC1=O)NC(=O)[C@H](CC(C)(C)C)NC(=O)[C@H](CC(=O)O)NC2=O (some centres unmarked) [I-927]	2.313
CC(=O)N1CCC[C@]12CC=CCCCC1(CCCC=CCCCCCC[C@@](C)(C(=O)N[C@@H](Cc3ccccc3)C(=O)N[C@@H](Cc3csc4ccccc34)C(=O)N[C@@H](CCC(N)=O)C(N)=O)NC(=O)[C@H](CC(N)=O)NC(=O)[C@H](Cc3ccccc3)NC(=O)[C@H](C)NC(=O)[C@H](C)NC(=O)[C@H](CCC(=O)O)NC(=O)[C@H](CC(=O)O)NC1=O)NC(=O)[C@H](CC(C)C)NC(=O)[C@H](CC(=O)O)NC2=O (some centres unmarked) [I-577]	2.376
CC(=O)N1CCC[C@]12CC=CCCCC1(CCCC=CCCCCCC[C@@](C)(C(=O)N[C@@H](Cc3ccccc3)C(=O)N[C@@H](Cc3c[nH]c4ccccc34)C(=O)N[C@@H](CCC(N)=O)C(N)=O)NC(=O)[C@H](C(C)C)NC(=O)[C@H](Cc3ccccc3)NC(=O)[C@H](C)NC(=O)[C@H](C)NC(=O)[C@H](CCC(=O)O)NC(=O)[C@H](CC(=O)O)NC1=O)NC(=O)[C@H](C)NC(=O)[C@H](CC(N)=O)NC2=O (some centres unmarked) [I-199]	2.262
CCCC[C@@H]1NC(=O)[C@H](C)NC(=O)[C@H](CCC(=O)O)NC(=O)[C@H](CC(=O)O)NC(=O)C2(CCCC=CCCCCCC[C@@](C)(C(=O)N[C@@H](Cc3ccccc3)C(=O)N[C@@H](Cc3csc4ccccc34)C(=O)N[C@@H](CCC(N)=O)C(N)=O)NC(=O)[C@H](CCC(N)=O)NC(=O)[C@H](Cc3ccccc3)NC1=O)CCCC=CC[C@]1(CCCN1C(C)=O)C(=O)N[C@@H](CC(=O)O)C(=O)N[C@@H]([C@@H](C)CC)C(=O)N2 (some centres unmarked) [I-667]	2.88
